B1: BRF1 (parent)
chain: CTACGSVLEDNIIVSEVQFVESSG

variants of: B1; test: protein stability index of a GFP-peptide fusion (GPS, HEK-293T) (PSI 1-6); higher = more stable; conditions: c terminus: a fixed tail appended;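 note: lentivirally expressed fusions sorted by FACS into six bins by GFP to DsRed ratio, PSI derived from sequencing read proportions per bin multiplied by bin number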
property: protein stability index
Numbers only.

CTACGSVLEDNIIVSEVQFVNSSG [E21N]
3.51

Go through the items and report each one's protein stability index.
1. CTACGSVLEDNIIVSEVQFVGSSG [E21G]
2. CTACWSVLEDNIIVSEVQFVESSG [G5W]

Reply text:
1: 3.58; 2: 2.27

Numbers sourced from the supplement of paper PMC10567573.
